As shown below, each of these compounds has a reported TGI value.
- System: K-562 leukemia
- Assay Explanation: NCI tumour cell line growth inhibition, 48 h
State just the number; it will be interpreted in µM.

- Compound: "Cc1ccc(-c2nc([P+](c3ccccc3)(c3ccccc3)c3ccccc3)c(S(=O)(=O)c3ccc(C)cc3)o2)cc1"
  System Name: "K-562 leukemia"
  Unit Annotation: "µM"
  TGI: 3.22
- Compound: "CC(=O)NC1C(OCc2ccccc2)OC(CO)C(O)C1OC(C)C(=O)NC(C)C(=O)NC(CCC(=O)NCCCCNc1c2ccccc2nc2cccc([N+](=O)[O-])c12)C(N)=O (centres undefined)"
  System Name: "K-562 leukemia"
  Unit Annotation: "µM"
  TGI: 12.5
- Compound: "CC(N)Cc1ccc(Cl)c(Cl)c1 (centres undefined)"
  System Name: "K-562 leukemia"
  Unit Annotation: "µM"
  TGI: 44

Could you now look at the following compound, please?
Q) Given `CCCCCCNC(=O)Oc1ccc(/C(=C(\C)c2ccc(Cl)cc2)c2ccc(OCCN3CCCCC3)cc2)cc1` , state its recorded TGI.
A) 3.51

----------
- Tested on: CAKI-1 renal
- Assay Explanation: NCI tumour cell line growth inhibition, 48 h; in the data active means GI50 below about 0.43 µM; inactive means the rest
Mark one answer only. Choices: active, inactive

Examples with answers:
- Molecule: "CSc1nc2sc3c(c2c(=O)n1-c1ccc(C(C)C)cc1)CCC(=O)C3"
  Assigned Category: "inactive"
- Molecule: "c1ccc(-c2nc(N3CCNCC3)c3oc(-c4ccccc4)nc3n2)cc1"
  Assigned Category: "inactive"
- Molecule: "COC(=O)c1cc2c(cc1Cl)SC1=NN(C)C(N(C)C)N1S2(=O)=O (stereo unspecified)"
  Assigned Category: "inactive"
- Molecule: "N#CC1=C(/N=C/c2ccccc2)Oc2c(ccc3ccccc23)C1c1ccccc1 (stereo unspecified)"
  Assigned Category: "active"
- Molecule: "C(=N/N(Cc1ccccc1)Cc1ccccc1)/c1ccccc1"
  Assigned Category: "inactive"

Q) Short answer needed: outcome of this test for `COC(=O)CCCCC(=O)c1c(C)[nH]c(/C=C2\N=C(c3ccc[nH]3)C=C2OC)c1C` ?
A) inactive

----------
Below, each entry is listed with its recorded TGI.
- Test system: SF-539 CNS
- Assay Explanation: NCI tumour cell line growth inhibition, 48 h

Worked cases, TGI given:
- Compound: "Cc1cc(C)nc(NS(=O)(=O)c2ccc(Nc3c4ccccc4nc4c(C(=O)Nc5ccc(S(=O)(=O)N=C(N)N)cc5)cccc34)cc2)n1"
  System Name: "SF-539 CNS"
  TGI: "> 100 µM"
- Compound: "Cc1ccc(-c2nc(N/N=C/C=C/c3ccccc3)c3ccccc3n2)cc1"
  System Name: "SF-539 CNS"
  TGI: "> 100 µM"
- Compound: "CCC1(O)C(=O)OCc2c1cc1n(c2=O)Cc2cc3c(NC(=O)CN)cccc3nc2-1 (centres undefined)"
  System Name: "SF-539 CNS"
  TGI: "0.821 µM"

Q) Short answer please: TGI, SF-539 CNS, entry CCCCC1(C)C=C/C(=C2/C(=O)O/C(=C\C(=O)O)C2=O)O1 (centres undefined)
A) > 100 µM

Q) What value of TGI on SF-539 CNS does `COc1ccc(-c2cc(C(=O)Nc3ccc(C)c(C)c3)nc(NC#N)n2)cc1` have?
A) > 100 µM

Q) Checklist item: TGI tested on SF-539 CNS, entry `Cc1cc(C#Cc2ccc(C(C)(C)C)cc2)ccc1-n1c(/C=C/c2ccc(O)cc2O)nc2ccccc2c1=O` , value?
A) 16.5 µM

Q) API: value(readout=TGI, system=SF-539 CNS) for record `N#CCCN1C/C(=C/c2ccc(Cl)cc2)C(=O)/C(=C/c2ccc(Cl)cc2)C1`
A) 2.74 µM

Q) Query for SF-539 CNS: what TGI does the record show for COC(=O)c1cc2c(c3c1CC(Cc1ccccc1)C3=O)CCC2 (centres undefined) ?
A) > 100 µM
